Values from patent EP4700040A1

target: Large subunit-rSCFV5 fusion protein; assay: cell-based or functional assay
Sequence (chain, as listed by the source): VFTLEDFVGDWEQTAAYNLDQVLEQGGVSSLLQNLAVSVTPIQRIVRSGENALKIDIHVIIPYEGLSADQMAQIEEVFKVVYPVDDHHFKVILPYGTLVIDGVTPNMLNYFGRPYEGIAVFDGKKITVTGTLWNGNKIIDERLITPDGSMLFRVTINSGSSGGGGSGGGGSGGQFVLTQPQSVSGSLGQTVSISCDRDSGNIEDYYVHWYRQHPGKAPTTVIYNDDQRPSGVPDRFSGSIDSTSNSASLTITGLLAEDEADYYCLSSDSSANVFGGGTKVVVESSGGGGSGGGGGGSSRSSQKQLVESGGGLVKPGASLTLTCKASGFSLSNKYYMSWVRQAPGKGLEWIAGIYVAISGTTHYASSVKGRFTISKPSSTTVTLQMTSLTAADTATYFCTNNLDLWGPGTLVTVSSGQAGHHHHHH
property label: Signal-to-noise ratio

For record VSGYRIFEKKS (peptide, part only; not given: rSCFV18 scFv part, part only) [rSCFV18-small subunit mutant fusion protein RC-129] the listed Signal-to-noise ratio is 5.8

For record VSGYRIFEKKW (peptide, part only; not given: rSCFV18 scFv part, part only) [rSCFV18-small subunit mutant fusion protein RC-113] the listed Signal-to-noise ratio is 5.3

(I) VEGYRLFNRKW (peptide, part only; not given: rSCFV18 scFv part, part only) [rSCFV18-small subunit mutant fusion protein RB223]
(II) VSGWRIFDRKS (peptide, part only; not given: rSCFV18 scFv part, part only) [rSCFV18-small subunit mutant fusion protein RC-041]
Q. Between I and II , which one has the lower reported Signal-to-noise ratio value? Let me know the label of the one you choose.
A. II
(II: 4.7, I: 34.7)
